testContext: siRNA; also: test system not given here
HELM strings list units from the 5' end as sugar, base in round brackets, then linkage (d deoxyribose, r ribose, m 2'-O-methyl, p phosphodiester). Strings are as the collection lists them, not checked against the first reports. ss, as = sense and antisense strand; [lna] = locked nucleic acid (LNA); [una] = unlocked nucleic acid; [hna] = hexitol nucleic acid; [fl2r] = 2'-fluoro
Recorded measurements of target mRNA knockdown, one per entry
# output: bare number, implied unit %

Solved entries:
{"substance": "RNA1{r(G)p.r(A)p.r(C)p.r(G)p.r(U)p.r(A)p.r(A)p.r(A)p.r(C)p.r(G)p.r(G)p.r(C)p.r(C)p.r(A)p.r(C)p.r(A)p.r(A)p.r(G)p.[hna](U)p.[hna](U)p.r(C)}|RNA2{r(A)p.r(C)p.r(U)p.r(U)p.r(G)p.r(U)p.r(G)p.r(G)p.r(C)p.r(C)p.r(G)p.r(U)p.r(U)p.r(U)p.r(A)p.r(C)p.r(G)p.r(U)p.[lna](C)p.[lna](G)p.r(C)}$$$RNA1{StrandType:ss}|RNA2{StrandType:as}$", "measurementName": "target mRNA knockdown", "valueObserved": 83.8}
{"substance": "RNA1{r(G)p.r(U)p.r(A)p.r(U)p.r(G)p.r(A)p.r(C)p.r(C)p.r(G)p.r(A)p.r(C)p.r(U)p.r(A)p.r(C)p.r(G)p.r(C)p.r(G)p.r(U)p.r(A)p.r(T)p.r(T)}|RNA2{r(U)p.r(U)p.r(C)p.r(A)p.r(G)p.r(U)p.r(G)p.r(U)p.r(G)p.r(A)p.r(U)p.r(G)p.r(A)p.r(C)p.r(A)p.r(C)p.[una](U)p.r(U)p.r(G)p.r(T)p.r(T)}$$$RNA1{StrandType:ss}|RNA2{StrandType:as}$", "measurementName": "target mRNA knockdown", "valueObserved": 87}
{"substance": "RNA1{[fl2r](C)p.r(G)p.[fl2r](A)p.r(C)p.[fl2r](G)p.r(A)p.[fl2r](U)p.r(U)p.[fl2r](C)p.r(U)p.[fl2r](U)p.r(C)p.[fl2r](U)p.r(A)p.[fl2r](C)p.r(U)p.[fl2r](C)p.r(A)p.[fl2r](A)p.r(T)p.r(T)}|RNA2{r(U)p.r(U)p.r(G)p.r(A)p.r(G)p.r(U)p.r(A)p.r(G)p.r(A)p.r(A)p.r(G)p.r(A)p.r(A)p.r(U)p.r(C)p.r(G)p.r(U)p.r(C)p.r(G)p.r(T)p.r(T)}$$$RNA1{StrandType:ss}|RNA2{StrandType:as}$", "measurementName": "target mRNA knockdown", "valueObserved": 56}
{"substance": "RNA1{r(A)p.r(A)p.r(A)p.r(C)p.r(C)p.r(C)p.r(C)p.m(U)p.r(A)p.r(G)p.r(A)p.r(G)p.r(G)p.r(G)p.m(C)p.r(A)p.r(A)p.r(G)p.r(U)p.r(T)p.r(T)}|RNA2{r(A)p.r(C)p.r(U)p.m(U)p.r(G)p.r(C)p.r(C)p.r(C)p.r(U)p.r(C)p.m(U)p.r(A)p.r(G)p.r(G)p.r(G)p.r(G)p.r(U)p.r(U)p.r(U)p.r(T)p.r(T)}$$$RNA1{StrandType:ss}|RNA2{StrandType:as}$", "measurementName": "target mRNA knockdown", "valueObserved": 78}
{"substance": "RNA1{r(G)p.r(A)p.r(C)p.r(G)p.[hna](U)p.r(A)p.r(A)p.[hna](A)p.r(C)p.r(G)p.[hna](G)p.r(C)p.r(C)p.[hna](A)p.r(C)p.r(A)p.r(A)p.r(G)p.[hna](U)p.[hna](U)p.d(T)}|RNA2{r(A)p.r(C)p.r(U)p.r(U)p.r(G)p.r(U)p.r(G)p.r(G)p.r(C)p.r(C)p.r(G)p.r(U)p.r(U)p.r(U)p.r(A)p.r(C)p.r(G)p.[hna](U)p.[hna](C)p.[hna](G)p.d(T)}$$$RNA1{StrandType:ss}|RNA2{StrandType:as}$", "measurementName": "target mRNA knockdown", "valueObserved": 74.2}
{"substance": "RNA1{r(G)p.r(G)p.r(G)p.r(A)p.r(G)p.r(G)p.r(U)p.r(C)p.r(U)p.r(U)p.r(A)p.r(G)p.r(A)p.r(A)p.r(A)p.r(A)p.r(C)p.r(A)p.r(C)p.r(T)p.r(T)}|RNA2{r(G)p.r(U)p.r(G)p.r(U)p.r(U)p.r(U)p.r(U)p.r(C)p.m(U)p.r(A)p.r(A)p.r(G)p.r(A)p.r(C)p.r(C)p.r(U)p.r(C)p.r(C)p.r(C)p.r(T)p.r(T)}$$$RNA1{StrandType:ss}|RNA2{StrandType:as}$", "measurementName": "target mRNA knockdown", "valueObserved": 82}

## Input Hello, please tell me recorded target mRNA knockdown for this one: `RNA1{r(G)p.r(A)p.r(C)p.r(G)p.r(U)p.r(A)p.r(A)p.r(A)p.r(C)p.r(G)p.r(G)p.r(C)p.r(C)p.r(A)p.r(C)p.r(A)p.r(A)p.r(G)p.r(U)p.[lna](T)p.[lna](C)}|RNA2{r(A)p.r(C)p.r(U)p.r(U)p.r(G)p.r(U)p.r(G)p.r(G)p.r(C)p.r(C)p.r(G)p.r(U)p.r(U)p.r(U)p.r(A)p.r(C)p.r(G)p.r(U)p.[lna](C)p.[lna](G)p.r(C)}$$$RNA1{StrandType:ss}|RNA2{StrandType:as}$`
## Output 86.7

## Input Hello, please tell me recorded target mRNA knockdown for this one: `RNA1{m(U)p.r(G)p.r(A)p.r(A)p.r(C)p.r(G)p.r(U)p.m(C)p.r(A)p.r(C)p.r(C)p.r(G)p.r(A)p.r(G)p.r(G)p.r(A)p.r(G)p.r(A)p.r(A)p.r(T)p.r(T)}|RNA2{r(U)p.r(U)p.r(C)p.r(U)p.r(C)p.r(C)p.r(U)p.r(C)p.r(G)p.r(G)p.m(U)p.r(G)p.r(A)p.r(C)p.r(G)p.r(U)p.r(U)p.m(C)p.r(A)p.r(T)p.r(T)}$$$RNA1{StrandType:ss}|RNA2{StrandType:as}$`
## Output 82

## Input Hello, please tell me recorded target mRNA knockdown for this one: `RNA1{r(A)p.m(C)p.m(C)p.m(U)p.m(U)p.m(U)p.m(C)p.m(C)p.r(A)p.m(C)p.m(U)p.m(U)p.m(C)p.m(U)p.r(A)p.r(A)p.r(G)p.m(C)p.m(C)p.r(T)p.r(T)}|RNA2{r(G)p.r(G)p.r(C)p.r(U)p.r(U)p.r(A)p.r(G)p.r(A)p.r(A)p.r(G)p.r(U)p.r(G)p.r(G)p.r(A)p.r(A)p.r(A)p.r(G)p.r(G)p.r(U)p.r(T)p.r(T)}$$$RNA1{StrandType:ss}|RNA2{StrandType:as}$`
## Output 75
